Read-out: UDP glucuronosyltransferase (UGT1A6), UGT1A6 (gene 54578)
assay.protocol: LTEA_HepaRG_UGT1A6: Life Technologies and Expression Analysis (LTEA) Assay for UDP glucuronosyltransferase (UGT1A6) using HepaRG (AID 2283539)
assay.context: mRNA level, 48 h; actives raise or lower the signal
Active and inactive are the calls of the source. How the source made its calls: active means hit-call score of the fitted dose curve at least 0.9, where 1 is the maximum; inactive means score below 0.9.

compound | outcome
Fc1ccc(Oc2ccnc3cc(Cl)cc(Cl)c23)cc1 | inactive
CCCCC(CC)COC(=O)c1ccccc1C(=O)OCC(CC)CCCC (stereo not drawn) | inactive
CCOP(=S)(OCC)SCn1c(=O)oc2cc(Cl)ccc21 | inactive

* * *

assay.protocol: IUF_NPC1_viability_72hr: Viability Assessment at 72 hours in the Leibniz Research Institute for Environmental Medicine (IUF) Neural Progenitor Cell Proliferation Assay (NPC1) (AID 2284209)
The source made the active and inactive calls. How the source made its calls: active means hit-call score of the fitted dose curve at least 0.9, where 1 is the maximum; inactive means score below 0.9.
Possible outcomes: active, inactive

compound | assigned.category
N#Cc1nn(-c2c(Cl)cc(C(F)(F)F)cc2Cl)c(N)c1S(=O)C(F)(F)F (stereo not given) | inactive
COC(=O)N(OC)c1ccccc1COc1ccn(-c2ccc(Cl)cc2)n1 | active
CO/C=C(/C(=O)OC)c1ccccc1Oc1cc(Oc2ccccc2C#N)ncn1 | inactive
Cc1ccc(-c2c(Cl)nc(C#N)n2S(=O)(=O)N(C)C)cc1 | active
CCCCC(CC)COC(=O)c1ccccc1C(=O)OCC(CC)CCCC (stereo not given) | inactive
CCOC(=O)CC(SP(=S)(OC)OC)C(=O)OCC (stereo not given) | inactive
CC(C)(C)c1ccc(CSc2cnn(C(C)(C)C)c(=O)c2Cl)cc1 | inactive
CNC(=O)ON=CC(C)(C)SC | inactive
CCOc1cc(Oc2ccc(C(F)(F)F)cc2Cl)ccc1[N+](=O)[O-] | inactive
COP(=S)(OC)Oc1nc(Cl)c(Cl)cc1Cl | inactive

* * *

Tested on: frog Estrogen Receptor (ESR2), gene 100174814
assay.protocol: ATG_frER2_XSP1: Attagene TRANS-FACTORIAL Multi-Species (XSP1) HepG2 Assay for frog Estrogen Receptor (ESR2) (AID 2283774)
Inconclusive results are not listed. Activity calls are given as the source filed them. The calls were made as follows: active = hit-call score of the fitted dose curve at least 0.9, where 1 is the maximum; inconclusive = response in the unintended direction; inactive = score below 0.9.

compound | AC50
CC(C)(C)c1ccc(CSc2cnn(C(C)(C)C)c(=O)c2Cl)cc1 | inactive
CC(C)Oc1cc(-n2nc(C(C)(C)C)oc2=O)c(Cl)cc1Cl | 33.5 µM (active)
COP(=S)(OC)Oc1nc(Cl)c(Cl)cc1Cl | 61.6 µM (active)
C=CC1(C)OC(=O)N(c2cc(Cl)cc(Cl)c2)C1=O (stereo not drawn) | inactive
CCCN(CCC)c1c([N+](=O)[O-])cc(S(N)(=O)=O)cc1[N+](=O)[O-] | 11.2 µM (active)
CO/C=C(/C(=O)OC)c1ccccc1Oc1cc(Oc2ccccc2C#N)ncn1 | inactive
COc1ccc(C(c2ccc(OC)cc2)C(Cl)(Cl)Cl)cc1 | 1.09 µM (active)
CCCC1COC(Cn2cncn2)(c2ccc(Cl)cc2Cl)O1 (stereo not drawn) | 27 µM (active)

* * *

assay.protocol: CCTE_Shafer_MEA_dev_LDH: CCTE's Lactate Dehydrogenase Assay for Cytotoxicity in the Neural Network Formation Assay, Shafer Lab (AID 2284068);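 further: exposure for twelve days from plating with re-dosing on DIV 5 and 9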
Inconclusive results are not listed. Calls of active or inactive are those of the source. How the source made its calls: active means hit-call score of the fitted dose curve at least 0.9, where 1 is the maximum; inconclusive means response in the unintended direction; inactive means score below 0.9.
Labels: active, inactive

compound | assigned.category
C=CCC1=C(C)C(OC(=O)C2C(C=C(C)C)C2(C)C)CC1=O (stereo not drawn) | active
CCOc1cc(Oc2ccc(C(F)(F)F)cc2Cl)ccc1[N+](=O)[O-] | active
C=CC1(C)OC(=O)N(c2cc(Cl)cc(Cl)c2)C1=O (stereo not drawn) | inactive

* * *

system.tested: Cellular tumor antigen p53 (Homo sapiens) (UniProt P04637)
Sequence (P04637 whole entry, looked up): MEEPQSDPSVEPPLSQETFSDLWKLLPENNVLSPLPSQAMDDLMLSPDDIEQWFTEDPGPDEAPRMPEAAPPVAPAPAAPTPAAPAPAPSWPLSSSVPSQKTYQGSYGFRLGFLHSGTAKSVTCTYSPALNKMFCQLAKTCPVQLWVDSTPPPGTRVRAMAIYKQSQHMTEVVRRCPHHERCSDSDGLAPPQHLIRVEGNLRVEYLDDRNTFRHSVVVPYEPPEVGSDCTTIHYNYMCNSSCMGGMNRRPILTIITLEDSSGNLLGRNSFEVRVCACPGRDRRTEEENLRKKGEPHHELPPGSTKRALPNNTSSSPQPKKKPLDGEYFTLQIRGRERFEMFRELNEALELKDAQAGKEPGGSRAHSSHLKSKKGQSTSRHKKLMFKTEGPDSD
assay.protocol: ATG_p53_CIS: Attagene CIS-FACTORIAL HepG2 Assay for human p53 Transcription Factor (AID 2282994)
assay.context: HepG2 p53 cis-element reporter, Attagene mRNA; actives raise or lower the signal
Active and inactive are the calls of the source. How the source made its calls: active means hit-call score of the fitted dose curve at least 0.9, where 1 is the maximum; inactive means score below 0.9.
Classes used: true (active), false (inactive)

molecule | system.tested | assigned.category
CC(C)(C)c1ccc(CSc2cnn(C(C)(C)C)c(=O)c2Cl)cc1 | Cellular tumor antigen p53 (Homo sapiens) (UniProt P04637) | false
CCOP(=S)(OCC)SCn1c(=O)oc2cc(Cl)ccc21 | Cellular tumor antigen p53 (Homo sapiens) (UniProt P04637) | false
CCCC1COC(Cn2cncn2)(c2ccc(Cl)cc2Cl)O1 (stereo unspecified) | Cellular tumor antigen p53 (Homo sapiens) (UniProt P04637) | false
CCOC(=O)C(Cl)Cc1cc(-n2nc(C)n(C(F)F)c2=O)c(F)cc1Cl (stereo unspecified) | Cellular tumor antigen p53 (Homo sapiens) (UniProt P04637) | false
O=C(Nc1ccccc1)Nc1ccnc(Cl)c1 | Cellular tumor antigen p53 (Homo sapiens) (UniProt P04637) | false
C#CCOS(=O)OC1CCCCC1Oc1ccc(C(C)(C)C)cc1 (stereo unspecified) | Cellular tumor antigen p53 (Homo sapiens) (UniProt P04637) | false
COc1ccc(C(c2ccc(OC)cc2)C(Cl)(Cl)Cl)cc1 | Cellular tumor antigen p53 (Homo sapiens) (UniProt P04637) | false
CCOc1cc(Oc2ccc(C(F)(F)F)cc2Cl)ccc1[N+](=O)[O-] | Cellular tumor antigen p53 (Homo sapiens) (UniProt P04637) | false
CON(C)C(=O)Nc1ccc(Cl)c(Cl)c1 | Cellular tumor antigen p53 (Homo sapiens) (UniProt P04637) | false
Cc1c(F)c(F)c(COC(=O)C2C(/C=C(\Cl)C(F)(F)F)C2(C)C)c(F)c1F (stereo unspecified) | Cellular tumor antigen p53 (Homo sapiens) (UniProt P04637) | false
COc1cnc(OC)n2nc(NS(=O)(=O)c3c(OCC(F)F)cccc3C(F)(F)F)nc12 | Cellular tumor antigen p53 (Homo sapiens) (UniProt P04637) | false
CO/C=C(/C(=O)OC)c1ccccc1Oc1cc(Oc2ccccc2C#N)ncn1 | Cellular tumor antigen p53 (Homo sapiens) (UniProt P04637) | false
Fc1ccc(Oc2ccnc3cc(Cl)cc(Cl)c23)cc1 | Cellular tumor antigen p53 (Homo sapiens) (UniProt P04637) | false
COc1nc(C)nc(NC(=O)NS(=O)(=O)c2ccccc2Cl)n1 | Cellular tumor antigen p53 (Homo sapiens) (UniProt P04637) | false
Cc1cc(Cl)ccc1OCC(=O)O | Cellular tumor antigen p53 (Homo sapiens) (UniProt P04637) | false
CC(C)Oc1cc(-n2nc(C(C)(C)C)oc2=O)c(Cl)cc1Cl | Cellular tumor antigen p53 (Homo sapiens) (UniProt P04637) | false
C=CC1(C)OC(=O)N(c2cc(Cl)cc(Cl)c2)C1=O (stereo unspecified) | Cellular tumor antigen p53 (Homo sapiens) (UniProt P04637) | false
O=C(O)COc1nc(Cl)c(Cl)cc1Cl | Cellular tumor antigen p53 (Homo sapiens) (UniProt P04637) | false
CNC(=O)ON=CC(C)(C)SC | Cellular tumor antigen p53 (Homo sapiens) (UniProt P04637) | false
COC(=O)N(OC)c1ccccc1COc1ccn(-c2ccc(Cl)cc2)n1 | Cellular tumor antigen p53 (Homo sapiens) (UniProt P04637) | false
Cc1ccc(-c2c(Cl)nc(C#N)n2S(=O)(=O)N(C)C)cc1 | Cellular tumor antigen p53 (Homo sapiens) (UniProt P04637) | false
COC(=O)C=C(C)OP(=O)(OC)OC | Cellular tumor antigen p53 (Homo sapiens) (UniProt P04637) | false
CCOC(=O)CC(SP(=S)(OC)OC)C(=O)OCC (stereo unspecified) | Cellular tumor antigen p53 (Homo sapiens) (UniProt P04637) | false
CCNc1nc(Cl)nc(NCC)n1 | Cellular tumor antigen p53 (Homo sapiens) (UniProt P04637) | false
N#CC(CCc1ccc(Cl)cc1)(Cn1cncn1)c1ccccc1 (stereo unspecified) | Cellular tumor antigen p53 (Homo sapiens) (UniProt P04637) | false
COP(=S)(OC)Oc1nc(Cl)c(Cl)cc1Cl | Cellular tumor antigen p53 (Homo sapiens) (UniProt P04637) | false
Oc1ccccc1-c1ccccc1 | Cellular tumor antigen p53 (Homo sapiens) (UniProt P04637) | false
CC(Oc1ccc(Cl)cc1Cl)C(=O)O (stereo unspecified) | Cellular tumor antigen p53 (Homo sapiens) (UniProt P04637) | false
C=CCC1=C(C)[C@@H](OC(=O)[C@@H]2[C@@H](C=C(C)C)C2(C)C)CC1=O | Cellular tumor antigen p53 (Homo sapiens) (UniProt P04637) | false
O=C(O)c1nc(Cl)ccc1Cl | Cellular tumor antigen p53 (Homo sapiens) (UniProt P04637) | false
N#Cc1cc(Br)c(O)c(Br)c1 | Cellular tumor antigen p53 (Homo sapiens) (UniProt P04637) | false
COP(N)(=O)SC (stereo unspecified) | Cellular tumor antigen p53 (Homo sapiens) (UniProt P04637) | false
CC(C)C1(C)N=C(c2nc3ccccc3cc2C(=O)O)NC1=O (stereo unspecified) | Cellular tumor antigen p53 (Homo sapiens) (UniProt P04637) | false
CCCCC(CC)COC(=O)c1ccccc1C(=O)OCC(CC)CCCC (stereo unspecified) | Cellular tumor antigen p53 (Homo sapiens) (UniProt P04637) | false
CCc1nn(C)c(C(=O)NCc2ccc(C(C)(C)C)cc2)c1Cl | Cellular tumor antigen p53 (Homo sapiens) (UniProt P04637) | true
CNC(=S)S | Cellular tumor antigen p53 (Homo sapiens) (UniProt P04637) | false
